// values below are HepSE_hepatic failure; system is Hepatotoxicity; further: call rule not given here
I'd appreciate a reply containing only the number, no unit.

Quick check: HepSE_hepatic failure on Hepatotoxicity, item CSCC[C@H](NC(=O)[C@H](Cc1ccc(OS(=O)(=O)O)cc1)NC(=O)[C@@H](N)CC(=O)O)C(=O)NCC(=O)N[C@@H](Cc1c[nH]c2ccccc12)C(=O)N[C@@H](CCSC)C(=O)N[C@@H](CC(=O)O)C(=O)N[C@@H](Cc1ccccc1)C(N)=O [SINCALIDE] ?
0

Same lookup for CO[C@]12CC[C@@]3(C[C@@H]1[C@](C)(O)C(C)(C)C)[C@H]1Cc4ccc(O)c5c4[C@@]3(CCN1CC1CC1)[C@H]2O5 , please.
0

Cool, now O=C(O)c1cc(/N=N/c2ccc(S(=O)(=O)Nc3ccccn3)cc2)ccc1O
1

Another molecule: COCCCOc1cc(C[C@@H](C[C@H](N)[C@@H](O)C[C@H](C(=O)NCC(C)(C)C(N)=O)C(C)C)C(C)C)ccc1OC
0

Field entry: CN1[C@@H]2CC[C@H]1C[C@@H](OC(c1ccccc1)c1ccccc1)C2
0

Queued: Cc1c(O)cccc1C(=O)N[C@@H](CSc1ccccc1)[C@H](O)CN1C[C@H]2CCCC[C@H]2C[C@H]1C(=O)NC(C)(C)C
0

// repeat for C[C@H](O)C(=O)Nc1c(I)c(C(=O)NC(CO)CO)c(I)c(C(=O)NC(CO)CO)c1I and report
0

Let us now turn to Nc1nc(N)c2nc(-c3ccccc3)c(N)nc2n1
0

Would you kindly repeat that for COc1cc(N)c(Cl)cc1C(=O)NC1CCN(CCCOc2ccc(F)cc2)CC1OC (stereo unspecified) [CISAPRIDE] ?
0

Please answer likewise for COc1c2occc2cc2ccc(=O)oc12
0

Also CN1CCC[C@@H]1CCO[C@](C)(c1ccccc1)c1ccc(Cl)cc1 ?
0

Now consider Nc1nc(O)c2ncn(COC(CO)CO)c2n1 and answer again.
1

Quick one: CC[C@]1(O)C[C@@H]2CN(CCc3c([nH]c4ccccc34)[C@@](C(=O)OC)(c3cc4c(cc3OC)N(C)[C@H]3[C@@](O)(C(=O)OC)[C@H](OC(C)=O)[C@]5(CC)C=CCN6CC[C@]43[C@@H]65)C2)C1
0

What do you get for CC(=O)N(CC(O)CO)c1c(I)c(C(=O)NCC(O)CO)c(I)c(C(=O)NCC(O)CO)c1I (stereo unspecified) [IOHEXOL] ?
0

Param item: CCCCC1=NC2(CCCC2)C(=O)N1Cc1ccc(-c2ccccc2-c2nnn[nH]2)cc1
0

// query: COc1ccc2cc(CCC(C)=O)ccc2c1
1

Param item: C=C1/C(=C\C=C2/CCC[C@]3(C)[C@@H]([C@H](C)/C=C/[C@@H](O)C4CC4)CC[C@@H]23)C[C@@H](O)C[C@@H]1O
0

# iterate: C[C@@H]1C[C@H]2[C@@H]3C[C@H](F)C4=CC(=O)C=C[C@]4(C)[C@@]3(F)[C@@H](O)C[C@]2(C)[C@@]1(O)C(=O)SCF
0

Now consider Cc1cn([C@H]2C=C[C@@H](CO)O2)c(=O)[nH]c1=O .
1

O=c1[nH]cc(F)c(=O)[nH]1 ?
0

Follow-up entry: CC(=O)CC(c1ccccc1)c1c(O)c2ccccc2oc1=O (stereo unspecified)
0

Please do the same for Nc1ccn(C[C@@H](CO)OCP(=O)(O)O)c(=O)n1.O.O as well.
0

Please do the same for CO/N=C(\C(=O)N[C@@H]1C(=O)N2C(C(=O)[O-])=C(C[N+]3(C)CCCC3)CS[C@H]12)c1csc(N)n1 as well.
1

Same for CC(=O)N[C@H]1[C@H](OCCCO)OC(C(=O)O)=C[C@@H]1O
0

Continue with CCCCCCCCCCCCCCCCCCCCCCO
0

Now give it for CN1CCC[C@@H]1Cc1c[nH]c2ccc(CCS(=O)(=O)c3ccccc3)cc12 too.
0

One more molecule: CC(C)OC(=O)CCC/C=C\C[C@@H]1[C@@H](/C=C/[C@@H](O)COc2cccc(C(F)(F)F)c2)[C@H](O)C[C@@H]1O
0

Now the molecule O=C(O)c1ccc(-n2nc(-c3ccccc3O)nc2-c2ccccc2O)cc1
1

// next record CN1C[C@H](C(=O)N[C@]2(C)O[C@@]3(O)[C@@H]4CCCN4C(=O)[C@H](Cc4ccccc4)N3C2=O)C[C@@H]2c3cccc4[nH]cc(c34)C[C@H]21 [DIHYDROERGOTAMINE]
0

Do the same for CC[C@@H](CO)NC(=O)[C@@H]1C=C2c3cccc4[nH]cc(c34)C[C@H]2N(C)C1 please
0

What do you get for Nc1nnc(-c2cccc(Cl)c2Cl)c(N)n1 ?
0

Ref: ChEMBL document CHEMBL1909294
